# system name: Adrenergic receptor alpha-1 (Rattus norvegicus, UniProt P15823+P23944+P43140)
# experiment summary: Binding affinity towards alpha-1 adrenergic receptor from rat brain membranes using [3H]prazosin as radioligand
reported endpoint: log10 IC50 (log10 of the value in nM)

{"molecule": "CN1CCN(C2=Nc3ccccc3Nc3ccc(OS(C)(=O)=O)cc32)CC1", "log10 IC50": 2.20}
{"molecule": "CN1CCN(C2=Nc3ccccc3Oc3ccc(OS(=O)(=O)C(F)(F)F)cc32)CC1", "log10 IC50": 1.43}
{"molecule": "CN1CCN(C2=Nc3ccccc3Sc3ccc(OS(=O)(=O)C(F)(F)F)cc32)CC1", "log10 IC50": 0.56}
{"molecule": "CN1CCN(C2=Nc3cc(Cl)ccc3Nc3ccc(OS(=O)(=O)C(F)(F)F)cc32)CC1", "log10 IC50": 0.85}
{"molecule": "CN1CCN(C2=Nc3cc(OS(C)(=O)=O)ccc3Nc3ccccc32)CC1", "log10 IC50": 3.94}
